assay.system: Luciferin 4-monooxygenase (Photinus pyralis) (UniProt P08659)
Sequence (P08659 whole entry, looked up): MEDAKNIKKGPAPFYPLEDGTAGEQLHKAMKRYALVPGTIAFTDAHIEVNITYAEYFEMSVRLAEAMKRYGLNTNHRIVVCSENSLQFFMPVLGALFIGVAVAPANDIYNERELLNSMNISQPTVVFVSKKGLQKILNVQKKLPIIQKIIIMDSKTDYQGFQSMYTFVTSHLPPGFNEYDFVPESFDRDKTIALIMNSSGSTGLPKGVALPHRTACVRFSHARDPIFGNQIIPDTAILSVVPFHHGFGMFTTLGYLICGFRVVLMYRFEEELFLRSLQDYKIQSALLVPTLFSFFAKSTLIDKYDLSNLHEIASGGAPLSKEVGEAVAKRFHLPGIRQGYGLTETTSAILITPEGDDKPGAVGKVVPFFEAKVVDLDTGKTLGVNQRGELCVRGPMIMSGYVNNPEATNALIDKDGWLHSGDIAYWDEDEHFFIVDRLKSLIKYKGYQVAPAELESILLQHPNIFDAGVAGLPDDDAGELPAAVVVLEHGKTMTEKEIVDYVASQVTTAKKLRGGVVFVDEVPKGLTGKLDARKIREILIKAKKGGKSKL
test.protocol: firefly luciferase enzyme inhibitors, primary screen, biochemical, luminescence, purified enzyme, 2006 set (AID 1141);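 note: cell-free assay with purified firefly luciferase at 100 ng per well in PBS; test concentration not given here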
condition.label: SteadyGlo luminescence, 30 min, called active from +8 up or from −8 down
The source made the active and inactive calls.
Hello, when you answer, please use one of the following outcomes: true (1) (active), false (0) (inactive)

| compound | answer.label |
| --- | --- |
| COCCOC(=O)N1C(=O)[C@@]2(c3ccccc31)[C@H](C(=O)Nc1nc3ccccc3s1)[C@H]1C(=O)O[C@H](c3ccccc3)[C@H](c3ccccc3)N1[C@@H]2c1ccc(OCCO)cc1 | false (0) |
| C=C[C@@H](COC(C)=O)N(Cc1ccc([N+](=O)[O-])cc1)S(=O)(=O)c1ccc(Br)cc1 | false (0) |
| CC(C)N1C(=O)[C@@]2(c3ccc([N+](=O)[O-])cc3)CC(=O)N(CC34CC5CC(CC(C5)C3)C4)[C@@H]2c2ccc(CO)cc21 | false (0) |
| C=C[C@@H](COC(C)=O)N(Cc1ccccc1[N+](=O)[O-])S(=O)(=O)c1ccc(Br)cc1 | false (0) |
| CC(C)NC(=O)[C@@]1(Cc2ccccc2I)c2ccccc2C(=O)N(Cc2ccccc2)[C@H]1c1ccc(CO)cc1 | false (0) |

Status in this test for COc1ccc(NN2C(C(O)c3ccc(OC)c(OCc4ccccc4)c3)C=CC3C(=O)N(C4CCCCC4)C(=O)C32)cc1 (stereo not given) ? false (0)

Queued: O=C1OCCC/C=C\[C@H]2OC34C=CCN(Cn5nnc6ccccc65)C(=O)[C@H]3N(CCCCCO)C(=O)[C@@H]4C12 (stereo not given in full) false (0)

Queued: CC(c1ccccc1)C(O)C1C=CC2C(=O)NC(=O)C2N1Nc1ccccn1 (stereo not given) false (0)

Queued: Cc1ccc(S[C@]2(C(=O)O)CC(=O)N(C3Cc4ccccc4C3)[C@@H]2c2ccc(CO)cc2I)cc1 false (0)

Queued: CCOC(=O)C[C@H]1[C@H](OC(=O)c2ccc(-c3ccccc3)cc2)[C@@H](NC(=O)c2ccc3ccccc3c2)c2cc(OCCCO)ccc2N1C(=O)Cc1ccc(OC)cc1 false (0)

Queued: C=CCNC(=O)[C@@H]1[C@H]2C(=O)O[C@H](c3ccccc3)[C@H](c3ccccc3)N2[C@H](c2ccc(OCCO)cc2)[C@@]12C(=O)Nc1ccccc12 true (1)

Queued: C[N+](C)(C)CCCCCCNC(=O)[C@H]1C[C@H]2C(=O)N3CCC[C@H]3C(=O)N2[C@H]1c1ccc(O)cc1 false (0)

Queued: CCCCC=C[C@@H](NC(=O)c1ccco1)c1ccccc1 false (0)

Queued: COCCOC(=O)N1C(=O)[C@@]2(c3cc(C#CC4=CCCCC4)ccc31)[C@H](C(=O)N1CCc3cc(OC)c(OC)cc3C1)[C@H]1C(=O)O[C@H](c3ccccc3)[C@H](c3ccccc3)N1[C@@H]2c1ccccc1OCCO false (0)

Queued: COC(=O)C1=CC(CCCO)=CC(C2CC2)N(Cc2sc3ccccc3c2Cl)C=C1C(=O)OC (stereo not given) false (0)

Queued: CCOC(=O)C1=C[C@@H](CC)N(S(=O)(=O)c2ccc(C)cc2)[C@H]1c1ccccc1 false (0)

Queued: COC(=O)[C@@]1(Cc2ccccc2)[C@H]2c3cc(C(=O)N4CCCC4)n(Cc4ccc(C)o4)c3C[C@H]2CN1C(=O)c1ccccc1 false (0)

Queued: [N-]=[N+]=Nc1ccccc1[C@H]1OC(c2ccc(OCCCO)cc2)=N[C@@]1(CCS(=O)(=O)c1ccccc1)C(=O)O true (1)

Queued: CCN(CC)c1ccc(N2CC=CC34O[C@@H]5/C=C\CCCOC(=O)C5[C@H]3C(=O)N(C(CO)C(C)C)[C@@H]4C2=O)cc1 (stereo not given in full) false (0)

Queued: [N-]=[N+]=Nc1ccccc1C[C@]1(C(=O)NCCN2CCOCC2)N=C(c2ccc(OCCCO)cc2)O[C@H]1c1ccccc1 false (0)

Queued: Cc1ccc(S[C@]2(C(=O)NCC(C)C)CC(=O)N(Cc3ccccc3)[C@@H]2c2ccc(CO)cc2I)cc1 false (0)
